Values from patent US20120178682A1

- Tested on: D-VEGF
- test description: SPR affinity measurements of GB1 peptidic compounds on immobilized D-VEGF
- Type: binding
- condition info: Table 1; target D-VEGF; E01 point mutants expressed in E. coli
experimental readout: Kon (M⁻¹ s⁻¹)
Give your result in M⁻¹ s⁻¹ as a bare value.

molecule | unit of measure | Kon
E01-S35G: E01 point mutant S35G (protein) MKIEEHHHHHHHHHHGGSTYKLILNGKTLKGETTTEAVDVYDAFDVFFVYAAGNFSDFDDWTYDDATKTFTVTEGGSDK | M⁻¹ s⁻¹ | 396000
E01-S35E: E01 point mutant S35E (protein) MKIEEHHHHHHHHHHGGSTYKLILNGKTLKGETTTEAVDVYDAFDVFFVYAAENFSDFDDWTYDDATKTFTVTEGGSDK | M⁻¹ s⁻¹ | 407000
E01-D41V: E01 point mutant D41V (protein) MKIEEHHHHHHHHHHGGSTYKLILNGKTLKGETTTEAVDVYDAFDVFFVYAASNFSDFVDWTYDDATKTFTVTEGGSDK | M⁻¹ s⁻¹ | 493000

Incoming: Consider the molecule E01-S35R: E01 point mutant S35R (protein) MKIEEHHHHHHHHHHGGSTYKLILNGKTLKGETTTEAVDVYDAFDVFFVYAARNFSDFDDWTYDDATKTFTVTEGGSDK and give its measured Kon.
Outgoing: 279000
